system: SK-MEL-28; experiment: SRB colorimetric assay of cell growth and viability, SK-MEL-28; format: cell-based, human; conditions: MEL-28; 48 hours exposure
Where a SMILES comes first, the peptide text is derived from it. Bridges are numbered along the chain shown (N, C = ends). [ ]: non-standard residue; d: D form. The star is where a group is joined. 2Nal = N[C@@H](Cc1ccc2ccccc2c1)C(=O)O; d(aIle) = CC[C@H](C)[C@@H](N)C(=O)O; d(aThr) = C[C@@H](O)[C@@H](N)C(=O)O; Hexanoyl(5-Me) = CC(C)CCCC(=O)*; Orn = NCCC[C@H](N)C(=O)O; Dhb = C/C=C(\N)C(=O)O
parameter: GI50 (nM)
One number for each entry, in nM.

Recorded GI50, per entry:
C/C=C1\NC(=O)[C@H](Cc2ccc3ccccc3c2)NC(=O)[C@@H](C(C)C)NC(=O)[C@@H]([C@@H](C)CC)NC(=O)[C@H](NC(=O)[C@H](NC(=O)[C@H](CCCN)NC(=O)[C@H]2CCCN2C(=O)[C@H](NC(=O)[C@@H](NC(=O)[C@@H](NC(=O)[C@H](NC(=O)CCCC(C)C)C(C)C)[C@@H](C)O)C(C)C)C(C)C)[C@@H](C)CC)[C@@H](C)OC(=O)[C@H](C(C)C)NC1=O [Compound 85, [Nal^3]-KF] ({Hexanoyl(5-Me)}-[dV]TV[dV][dP][Orn][d(aIle)][d(aThr)][d(aIle)][dV][2Nal][Dhb]V; ester 8-C) = 230
C/C=C1\NC(=O)[C@H](Cc2ccccc2)NC(=O)[C@@H](C(C)C)NC(=O)[C@@H]([C@@H](C)CC)NC(=O)[C@H](NC(=O)[C@H](NC(=O)[C@H](CCCN)NC(=O)[C@H]2CCCN2C(=O)[C@H](NC(=O)[C@@H](NC(=O)[C@H](CC(C)C)NC(=O)[C@H](NC(=O)CCCC(C)C)C(C)C)C(C)C)C(C)C)[C@@H](C)CC)[C@@H](C)OC(=O)[C@H](C(C)C)NC1=O [Compound 113, [Leu^12]-KF] ({Hexanoyl(5-Me)}-[dV]LV[dV][dP][Orn][d(aIle)][d(aThr)][d(aIle)][dV]F[Dhb]V; ester 8-C) = 1420

Let's switch to this molecule now.
[Q] Entry C/C=C1\NC(=O)[C@H](Cc2ccc(Cl)cc2)NC(=O)[C@@H](C(C)C)NC(=O)[C@@H]([C@@H](C)CC)NC(=O)[C@H](NC(=O)[C@H](NC(=O)[C@H](CCCN)NC(=O)[C@H]2CCCN2C(=O)[C@H](NC(=O)[C@@H](NC(=O)[C@@H](NC(=O)[C@H](NC(=O)CCCC(C)C)C(C)C)[C@@H](C)O)C(C)C)C(C)C)[C@@H](C)CC)[C@@H](C)OC(=O)[C@H](C(C)C)NC1=O [Compound 83, [Phe(4-Cl)^3]-KF] has what GI50?
[A] 206

* * *

test system: SK-MEL-28; experiment: SRB colorimetric assay of cell growth and viability, SK-MEL-28; assay type: cell-based, human; conditions: 48 hours exposure
Where a SMILES comes first, the peptide text is derived from it. Bridges are numbered along the chain shown (N, C = ends). [ ]: non-standard residue; d: D form. The star is where a group is joined. d(aIle) = CC[C@H](C)[C@@H](N)C(=O)O; d(aThr) = C[C@@H](O)[C@@H](N)C(=O)O; hCha = N[C@@H](CCC1CCCCC1)C(=O)O; Hexanoyl(5-Me) = CC(C)CCCC(=O)*; Orn = NCCC[C@H](N)C(=O)O; Dhb = C/C=C(\N)C(=O)O
parameter: TGI MEL-28 (Molar)
Give bare numbers, in Molar.

C/C=C1\NC(=O)[C@H](Cc2ccccc2)NC(=O)[C@@H](C(C)C)NC(=O)[C@@H]([C@@H](C)CC)NC(=O)[C@H](NC(=O)[C@H](NC(=O)[C@H](CCCN)NC(=O)[C@H]2CCCN2C(=O)[C@H](NC(=O)CCCC(C)C)C(C)C)[C@@H](C)CC)[C@@H](C)OC(=O)[C@H](C(C)C)NC1=O [Compound 31, [noVal^11, noThr^12, noD-Val^13]-KF] ({Hexanoyl(5-Me)}-[dV][dP][Orn][d(aIle)][d(aThr)][d(aIle)][dV]F[Dhb]V; ester 5-C) = 8.49E−06
C/C=C1\NC(=O)[C@H](Cc2ccccc2)NC(=O)[C@@H](C(C)C)NC(=O)[C@@H]([C@@H](C)CC)NC(=O)[C@H](NC(=O)[C@H](NC(=O)[C@H](CCCN)NC(=O)[C@H]2CCCN2C(=O)[C@H](NC(=O)[C@H](CCC2CCCCC2)NC(=O)[C@@H](NC(=O)[C@H](NC(=O)CCCC(C)C)C(C)C)[C@@H](C)O)C(C)C)[C@@H](C)CC)[C@@H](C)OC(=O)[C@H](C(C)C)NC1=O [Compound 9, [hCh^11]-KF] ({Hexanoyl(5-Me)}-[dV]T[hCha][dV][dP][Orn][d(aIle)][d(aThr)][d(aIle)][dV]F[Dhb]V; ester 8-C) = 9.44E−07
C/C=C1\NC(=O)[C@H](Cc2ccccc2)NC(=O)[C@@H](C(C)C)NC(=O)[C@@H]([C@@H](C)CC)NC(=O)[C@H](NC(=O)[C@H](NC(=O)[C@H](CCCN)NC(=O)[C@H]2CCCN2C(=O)[C@H](NC(=O)[C@H](CCCN)NC(=O)[C@@H](NC(=O)[C@H](NC(=O)CCCC(C)C)C(C)C)[C@@H](C)O)C(C)C)[C@@H](C)CC)[C@@H](C)OC(=O)[C@H](C(C)C)NC1=O [Compound 49, [Orn^11]-KF] ({Hexanoyl(5-Me)}-[dV]T[Orn][dV][dP][Orn][d(aIle)][d(aThr)][d(aIle)][dV]F[Dhb]V; ester 8-C) = 2.50E−06

[Q] Entry C/C=C1\NC(=O)[C@H](Cc2ccccc2)NC(=O)[C@@H](C(C)C)NC(=O)[C@@H]([C@@H](C)CC)NC(=O)[C@H](NC(=O)[C@H](NC(=O)[C@H](CCCN)NC(=O)[C@H]2CCCN2C(=O)[C@H](NC(=O)[C@@H](NC(=O)[C@@H](NC(=O)[C@@H](CCC(N)=O)NC(=O)CCCC(C)C)[C@@H](C)O)C(C)C)C(C)C)[C@@H](C)CC)[C@@H](C)OC(=O)[C@H](C(C)C)NC1=O [Compound 40, [D-Gln^13]-KF] has what TGI MEL-28?
[A] 2.27E−06

The origin of these recorded values is patent US20070117743A1.
